System: Radical scavenging activity
RUN DESCRIPTION: Antioxidant activity assessed as DPPH free radical scavenging activity after 30 mins in dark by spectrophotometry
Assay type: functional
EXPERIMENTAL READOUT: IC50 (µM)

- COC(=O)C1(O)C[C@@H](O)[C@@H](O)[C@H](OC(=O)/C=C/c2ccc(O)c(O)c2)C1 (stereo not given in full): 18.6
- O=C(/C=C/c1ccc(O)c(O)c1)O[C@@H]1C[C@](O)(C(=O)O)C[C@@H](O)[C@H]1O: 20
- COC(=O)C1(O)C[C@@H](O)[C@@H](O)[C@H](OC(=O)/C=C\c2ccc(O)c(O)c2)C1 (stereo not given in full): 18.5

(I) Cc1cc(C(C)(C)C)c(O)c(C(C)(C)C)c1 [BUTYLATED HYDROXYTOLUENE]
(II) O=C(O[C@H]1[C@H]([C@@]2(c3ccc(O)c(O)c3)CC[C@H](Cc3ccc(O)c(O)c3)C(=O)O2)OC[C@@H]1O)c1cc(O)cc(O)c1
Request: Recorded IC50 values differ for I and II ; which one is higher? Choose, then provide that item's label.
Result: I
(I: 62.5 µM, II: 7.5 µM)
